Below, each entry is listed with its recorded IC50.
# measured_target: dopamine D2 receptor (Rattus norvegicus)
# Construct: from tissue; host or cells: rat striatal brain tissue homogenate
# Sequence (P61169 whole entry): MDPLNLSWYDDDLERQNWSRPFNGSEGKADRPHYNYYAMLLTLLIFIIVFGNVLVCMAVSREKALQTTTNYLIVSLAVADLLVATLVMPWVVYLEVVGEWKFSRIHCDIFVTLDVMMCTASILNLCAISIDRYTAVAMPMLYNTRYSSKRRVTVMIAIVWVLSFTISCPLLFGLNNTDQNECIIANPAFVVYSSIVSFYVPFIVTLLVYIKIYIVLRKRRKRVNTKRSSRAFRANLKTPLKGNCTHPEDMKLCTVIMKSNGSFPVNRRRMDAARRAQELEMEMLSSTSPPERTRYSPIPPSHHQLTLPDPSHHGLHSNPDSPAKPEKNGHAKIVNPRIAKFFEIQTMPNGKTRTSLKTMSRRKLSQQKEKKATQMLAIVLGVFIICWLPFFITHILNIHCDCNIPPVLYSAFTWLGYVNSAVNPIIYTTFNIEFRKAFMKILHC
# measurement_protocol: Dopamine D2 receptor affinity, 3H-quinpirole binding in homogenized rat striatal brain tissue
Could you give me the number in nM? Just the number is fine.

molecule: O=c1[nH]c2ccc3c(c2[nH]1)OC(CNCC12CC4CC(CC(C4)C1)C2)CO3 (stereo not shown) [Example 4]
recorded_measurement: 0.84
//
molecule: O=c1[nH]c2ccc3c(c2[nH]1)OC(CNCCCc1c[nH]c2ccccc12)CO3 (stereo not shown) [Example 8]
recorded_measurement: 0.02
//
molecule: O=c1[nH]c2ccc3c(c2[nH]1)O[C@@H](CN1CCc2ccccc2C1)CO3 [Example 5]
recorded_measurement: 6.78

As a next step, examine the molecule that follows.
Recorded IC50 (molecule O=c1[nH]c2ccc3c(c2[nH]1)OC(CNCCCCc1ccccc1)CO3 (stereo not shown) [Example 2] ): 0.18
